All values here come from patent US10364245B2.

# pIC50 values compiled below
# ASSAYED_TARGET: p38 alpha (Homo sapiens)
# Construct: purchased Invitrogen PV3304
# Sequence (Q16539 whole entry): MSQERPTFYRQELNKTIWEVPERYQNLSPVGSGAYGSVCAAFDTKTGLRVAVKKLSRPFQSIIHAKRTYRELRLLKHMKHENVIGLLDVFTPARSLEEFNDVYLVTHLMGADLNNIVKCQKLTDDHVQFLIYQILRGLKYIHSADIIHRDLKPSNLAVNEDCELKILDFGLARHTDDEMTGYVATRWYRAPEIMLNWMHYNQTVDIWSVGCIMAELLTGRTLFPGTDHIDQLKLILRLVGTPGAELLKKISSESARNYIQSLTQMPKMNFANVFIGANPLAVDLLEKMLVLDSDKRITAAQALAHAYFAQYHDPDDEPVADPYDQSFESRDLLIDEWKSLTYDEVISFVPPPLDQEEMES
# ASSAY_PROCEDURE: P38 alpha enzyme inhibition assay (Alphascreen kinase activity assay)
# Format: biochemical
# TEST_PARAMETERS: 100 pM p38 alpha, 2 hours preincubation at 25° C., 250 μM ATP, ATF-2 fusion protein; read-out: p38α inhibition
pIC50: −log10 of the molar value.

Please fill in: pIC50 reported for COc1ncc(C(C)(C)C)cc1NC(=O)N[C@H]1CC[C@@H](Oc2ccc3nnc([C@]4(C)CCCN4C)n3c2)c2ccccc21 = 8.00 to 9.00

Looking up CCC(C)(C)c1nnc2ccc(O[C@@H]3CC[C@H](NC(=O)Nc4cc(C(C)(C)C)nc(C(=O)NCCN5CCOCC5)n4)c4ccccc43)cn12 , I found its pIC50 recorded as > 9.00

Field pIC50 (entry CCN(C)C(C)(C)CNC(=O)c1nc(NC(=O)N[C@H]2CC[C@@H](Oc3ccc4nnc(C(C)(C)COC)n4c3)c3ccccc32)cc(C(C)(C)C)n1 ) reads > 9.00

pIC50 for CN1CCC[C@@]1(C)c1nnc2ccc(O[C@@H]3CC[C@H](NC(=O)Nc4cc(C(C)(C)C)nc(NS(C)(=O)=O)n4)c4ccccc43)cn12 is 8.00 to 9.00

Lab note: CC(=O)OCc1nc(NC(=O)N[C@H]2CC[C@@H](Oc3ccc4nnc([C@]5(C)CCCN5C)n4c3)c3ccccc32)cc(C(C)(C)C)n1 gave pIC50 of 8.00 to 9.00

Briefly, pIC50 measured for CC(C)c1nnc2ccc(O[C@@H]3CC[C@H](NC(=O)Nc4cc(C(C)(C)C)nc(C(=O)NCCN(C)C)n4)c4ccccc43)cn12 : 8.00 to 9.00
